- experimental_target: T1, cynomolgus 4-1BB-His protein (cynomolgus, UniProt A9YYE7 24-186)
- T1 construct: Recombinant His-tagged protein; also called cyno 4-1BB antigen; not shown: His tag
- T1 sequence: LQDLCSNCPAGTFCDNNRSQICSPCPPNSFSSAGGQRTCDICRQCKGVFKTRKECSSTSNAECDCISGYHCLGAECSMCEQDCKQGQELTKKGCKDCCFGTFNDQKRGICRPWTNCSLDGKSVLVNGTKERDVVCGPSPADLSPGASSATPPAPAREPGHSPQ
- experiment: ELISA, plate coated with cynomolgus 4-1BB-His, anti-human IgG-HRP
EC50 by entry:

binder | EC50 (ng/mL)
B210 chimeric mAb (VHH, Alpaca VHH tested as 'chimeric mAb') VHH: EVQLVESGGGLVQPGGSLRLSCAASGLSLDYYAIGWFRQAPGKEREGVSCISSSGRSTNYADSVKGRFTISRDNAKNTVYLQMNSLKPEDTADYYCATDTTTRCPIWSNYVESDYWGQGTQVTVSS | 3.91
B125 chimeric mAb (VHH, Alpaca VHH tested as 'chimeric mAb') VHH: QVQLVESGGGLVQPGGSLRLSCAASGFAFSDYAIGWFRQAPGKEREGVSCISSSDGSTYYADSVKGRFTISRDNAKNTVYLQMNSLKPEDTAVYYCATDTTTRCPIWSYYVESDYWGQGTQVTVSS | 3.54
B31 chimeric mAb (VHH, Alpaca VHH tested as 'chimeric mAb' expressed in 293F cells, purified by protein G, detected with anti-human IgG and captured on Protein A; also called B31 chimeric antibody) VHH: QVQLVESGGGLVQAGGSLRLSCAASGDIFSIMFWYRQPQGKQREYVAHITSNGRTNYADSVTGRFTISRGNNDNTMYLQMDNLKPQDTAVYYCAADDATNTRTYWGQGTQVTVSS | 4.06
